# MEASURED_TARGET: T1, mouse tissue factor pathway inhibitor (TFPI) (mouse, UniProt O54819 29-289, limits assumed)
# T1 construct: bought; also called mTFPI; murine TFPI
# T1 sequence (looked up): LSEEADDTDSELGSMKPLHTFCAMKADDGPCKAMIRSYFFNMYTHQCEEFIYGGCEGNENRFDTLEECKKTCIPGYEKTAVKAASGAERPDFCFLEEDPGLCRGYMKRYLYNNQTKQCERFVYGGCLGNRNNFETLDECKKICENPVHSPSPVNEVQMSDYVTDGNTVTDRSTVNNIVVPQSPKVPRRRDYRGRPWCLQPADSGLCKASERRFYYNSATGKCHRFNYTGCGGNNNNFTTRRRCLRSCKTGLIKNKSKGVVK
# ASSAY_SUMMARY: competitive ELISA
Field: variant/HC_K99L. Provide a value for each of the binders that follow.
Unit ratio implied. Number only.

Qu. # get_value(readout='variant/HC_K99L', item= 2A8 HC S35D+R52S+K99L/LC Y48F+D91L+V96W (Fab, V domains shown) VH: QVQLVESGGGLVQPGGSLRLSCAASGFTFRSYGMDWVRQAPGKGLEWVSSISGSSSSTYYADSVKGRFTISRDNSKNTLYLQMNSLRAEDTAVYYCARLYRYWFDYWGQGTLVTVSS VL: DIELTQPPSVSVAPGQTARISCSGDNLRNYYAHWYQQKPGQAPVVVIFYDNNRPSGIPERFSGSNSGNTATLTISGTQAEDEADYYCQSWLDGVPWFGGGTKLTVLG )
Ans. 3

Qu. # get_value(readout='variant/HC_K99L', item= 2A8 HC S31V+K99V/LC N51V+D91W (Fab, V domains shown) VH: QVQLVESGGGLVQPGGSLRLSCAASGFTFRVYGMSWVRQAPGKGLEWVSSIRGSSSSTYYADSVKGRFTISRDNSKNTLYLQMNSLRAEDTAVYYCARVYRYWFDYWGQGTLVTVSS VL: DIELTQPPSVSVAPGQTARISCSGDNLRNYYAHWYQQKPGQAPVVVIYYDVNRPSGIPERFSGSNSGNTATLTISGTQAEDEADYYCQSWWDGVPVFGGGTKLTVLG )
Ans. 5.6

Qu. # get_value(readout='variant/HC_K99L', item= 2A8 HC S31V+G33P+I51D+S54F+K99V/LC Y48F+N51V+D91W (Fab, V domains shown) VH: QVQLVESGGGLVQPGGSLRLSCAASGFTFRVYPMSWVRQAPGKGLEWVSSDRGFSSSTYYADSVKGRFTISRDNSKNTLYLQMNSLRAEDTAVYYCARVYRYWFDYWGQGTLVTVSS VL: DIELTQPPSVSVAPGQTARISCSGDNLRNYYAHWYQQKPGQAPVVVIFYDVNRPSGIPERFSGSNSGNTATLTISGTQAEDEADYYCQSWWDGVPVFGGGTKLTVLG )
Ans. 5.9

These data points were gathered from patent USRE47150.
